# Test system: MCF7 breast
# assay_protocol: NCI tumour cell line growth inhibition, 48 h
metric: GI50

molecule	GI50
Nc1nc(-c2ccc(F)cc2)c(-c2ccc3ncccc3n2)s1	9000 nM
Cn1ccnc1C(=O)/C=C/c1ccccc1	1270 nM
CC1(C)[C@@H](O[C@@H]2OC[C@@H](O[C@@H]3O[C@H](CO)[C@@H](O)[C@H](O)[C@H]3O[C@@H]3OC[C@@H](O)[C@H](O)[C@H]3O)[C@H](O)[C@H]2O[C@@H]2O[C@H](CO)[C@@H](O)[C@H](O)[C@H]2O)CC[C@]2(C)[C@H]3CC[C@]45OC[C@@]6(CC[C@](C)(C=O)C[C@H]64)[C@H](O)C[C@@]5(C)[C@]3(C)CC[C@@H]12	972 nM
COc1ccc(OC)c(/C=C(/C)[N+](=O)[O-])c1	832 nM
COc1ccc(-c2nc3ccccn3c2/C=C/C(=O)c2cc(OC)c(OC)c(OC)c2)cc1	2380 nM

# query: GI50 | item `Cc1cc(Cl)ccc1NC(=O)c1cc2ccccc2cc1O` | system: MCF7 breast 1570 nM

Provide value of GI50 for this record tested with MCF7 breast: `N#Cc1c(N)nc(N2CCOCC2)c(C#N)c1-c1cccnc1` 55800 nM

Entry `Cc1cccc2c(=O)c3c(sc12)c(NCCNCCO)nc1ccccc13` , system MCF7 breast: what GI50 was measured? 1240 nM

Quick check: GI50 on MCF7 breast, item `CN(CC(=O)N(Cc1ccc(C2CCCCC2)cc1)c1ccc(C(=O)O)c(O)c1)S(=O)(=O)c1c(F)c(F)c(F)c(F)c1F` ? 3560 nM

Lab note: need GI50 for `Cc1cc(N(CCNc2ccnc3cc(Cl)ccc23)Cc2ccco2)nc(Cl)n1` on MCF7 breast, anyone have it? 1650 nM

Find GI50 (MCF7 breast) for the entry CC[C@@H](C(=O)[C@@H](C)[C@@H](O)[C@H](C)[C@@H]1O[C@@H]([C@@H](CC)C(=O)N(CC)CC)CC[C@@H]1C)C1O[C@]2(C=CC(=O)[C@]3(CC[C@@](C)([C@H]4CC[C@](O)(CC)[C@H](C)O4)O3)O2)[C@H](C)C[C@@H]1C (stereo partly drawn) 2410 nM

Return GI50 measured with MCF7 breast given this molecule: `Oc1[nH]c2ccc(Cl)cc2c1/C=c1/ccc2c(c1)N=C(c1ccc(F)cc1)N=2` 1330 nM

Write down the reported GI50 of CCN(C(=O)c1cc(F)ccc1Oc1cncnc1N1CC2(CCN(CC3CCC(NS(=O)(=O)CC)CC3)CC2)C1)C(C)C (stereo not drawn) , test system: MCF7 breast. > 100000 nM

Could you share what GI50 was measured for `CC(=O)O[C@]1(C(C)=O)CC[C@H]2[C@@H]3C=C(C)C4=CC(=O)CC[C@]4(C)[C@H]3CC[C@@]21C` , tested on MCF7 breast? > 100000 nM

Give recorded GI50 with MCF7 breast for the following molecule: `CN(C)c1ccc(Nc2cc(-c3cccc(OC(F)(F)F)c3)nc3ccc(N4CCCC4)cc23)cc1` 1860 nM

Kindly state the measured GI50 obtained for CCC1CCc2nc3sc(C(=O)Nc4cccc(F)c4)c(N)c3cc2C1 (stereo not drawn) with MCF7 breast. 313 nM

Which measured GI50 belongs to `COc1ccc2c(c1)C(=O)c1c-2c(Nc2ccc(Cl)cc2)nc2ccccc12` , tested on MCF7 breast? > 100000 nM

Which GI50 is reported with MCF7 breast for this entry: `COc1cc2c(cc1C)NC(=O)/C2=C\c1cccc(Oc2ccccc2)c1` ? 6730 nM
